- Tested on: W2
- PROCEDURE SUMMARY: qHTS profiling for inhibitors of Plasmodium falciparum proliferation (AID 504749); note: nearly all actives have a fitted effect of over 60% in size
- STATED CONDITIONS: P. falciparum in erythrocytes, SYBR Green DNA, 72 h; series mostly up to 28.7 µM
Results filed as inconclusive are left out. Activity calls are given as the source filed them. Calls come from the whole dose curve; as a rule, active = well fitted inhibition curve with a large enough effect; inconclusive = small, poorly fitted or top-dose-only effect; inactive = flat fitted curve, though single readings scatter.
Outcomes: active, inactive

COMPOUND: CC(C)NCC(O)c1ccc(NS(C)(=O)=O)cc1 (stereo not drawn)
MEASURED TARGET: W2
ANSWER LABEL: inactive

COMPOUND: CCCc1cc(C(N)=S)ccn1
MEASURED TARGET: W2
ANSWER LABEL: inactive

COMPOUND: O=NN(CCCl)C(=O)NC1CCCCC1
MEASURED TARGET: W2
ANSWER LABEL: inactive

COMPOUND: Nc1nc(N)nc(-c2cc(Cl)ccc2Cl)n1
MEASURED TARGET: W2
ANSWER LABEL: inactive

COMPOUND: CCn1cc(C(=O)O)c(=O)c2cc(F)c(N3CCNCC3)cc21
MEASURED TARGET: W2
ANSWER LABEL: active

COMPOUND: CN(C)c1ccc(C(=C2C=CC(=[N+](C)C)C=C2)c2ccc(N(C)C)cc2)cc1
MEASURED TARGET: W2
ANSWER LABEL: active

COMPOUND: CCc1cc(C(N)=S)ccn1
MEASURED TARGET: W2
ANSWER LABEL: inactive

COMPOUND: COc1cnc(NS(=O)(=O)c2ccc(N)cc2)nc1
MEASURED TARGET: W2
ANSWER LABEL: inactive

COMPOUND: NC(N)=NC(N)=NCCc1ccccc1
MEASURED TARGET: W2
ANSWER LABEL: inactive

COMPOUND: N[C@@H](C(=O)N[C@@H]1C(=O)N2C(C(=O)O)=C(Cl)CS[C@H]12)c1ccccc1
MEASURED TARGET: W2
ANSWER LABEL: inactive

COMPOUND: C#CCN[C@@H]1CCc2ccccc21
MEASURED TARGET: W2
ANSWER LABEL: inactive

COMPOUND: CCOCC(O)COc1ccc(NC(=O)CC[S+](C)C)cc1 (stereo not drawn)
MEASURED TARGET: W2
ANSWER LABEL: inactive

COMPOUND: CN(CCOc1ccc(CC2SC(=O)NC2=O)cc1)c1ccccn1 (stereo not drawn)
MEASURED TARGET: W2
ANSWER LABEL: inactive
